The reported measurements were obtained from ChEMBL document CHEMBL1158874.

- Assay method text: Inhibition of Sprague-Dawley rat cytosolic alcohol dehydrogenase
pIC50: −log10 of the molar value.
Property name: pIC50

For O=C1c2cccc(O)c2C(=O)c2c(O)cc(CO)cc21 [ALOE-EMODIN] , write its pIC50.
4.61

P. COc1cc(-c2c(C)cc(O)cc2O[C@@H]2O[C@@H](CO)[C@@H](O)[C@H](O)[C@H]2O)oc(=O)c1 [ALOENIN]
Q. c1cn[nH]c1 [PYRAZOLE]
Which has the higher pIC50, P or Q ? // respond with label for picked entry
Q
(Q: 5.01, P: 4.48)
